- protocol-notes: qHTS assay to identify small molecule antagonists of the retinoid-related orphan receptor gamma (ROR-gamma) signaling pathway - cell viability counter screen (AID 1159520); note: nearly all actives have a fitted effect of over 50% in size
- assay-conditions: Tet-on RORgamma CHO cells viability, ATP luminescence, 16 h; series mostly up to 92.4 µM
Records with an inconclusive call do not appear. Activity calls are given as the source filed them. Calls come from the whole dose curve; as a rule, active = well fitted cell-killing curve with a large enough effect in the repeat runs; inconclusive = weak or mixed curves, or effect the other way; inactive = no such curve, though single readings can be large or run the other way.
Permitted responses: active, inactive

Returns: the outcome recorded for `CC=O` in this assay.
active

Could you do the same for `O=C(Nc1ccc(Cl)cc1)Nc1ccc(Cl)c(C(F)(F)F)c1` , please?
active

Could you do the same for `CC(C)(c1cc(Br)c(OCCO)c(Br)c1)c1cc(Br)c(OCCO)c(Br)c1` , please?
active

Could you do the same for `O=C(O)Cc1ccc(OCCNC[C@H](O)c2ccccc2)cc1` , please?
inactive

Could you do the same for `CCCCCCCC/C=C\CCCCCCCC(=O)OCCOC(=O)CCCCCCC/C=C\CCCCCCCC` , please?
inactive

Could you do the same for `CSc1c(Cl)c(Cl)c(Cl)c(Cl)c1Cl` , please?
inactive

Could you do the same for `OCCN1CN(CCO)CN(CCO)C1` , please?
inactive

Could you do the same for `COc1ccc(-n2nc(CCC(=O)N(C)O)cc2-c2ccc(Cl)cc2)cc1` , please?
inactive

Could you do the same for `C/C=C/c1ccc(OC)c(OC)c1` , please?
inactive

Could you do the same for C=CC(C)(CCC=C(C)C)OC(=O)/C=C/c1ccccc1 (stereo not drawn) , please?
inactive

Could you do the same for `C=CC(=O)OCCOCC(CC)(COCCOC(=O)C=C)COCCOC(=O)C=C` , please?
active

Could you do the same for CC1CNCC(C)O1 (stereo not drawn) , please?
inactive

Could you do the same for CCCC(C)CCC(C)=O (stereo not drawn) , please?
inactive

Could you do the same for `CC(=O)Nc1ccc(O)cc1` , please?
inactive

Could you do the same for `CC(C)c1cccc(C(C)C)c1N1C(=O)c2ccc(O)cc2C1=O` , please?
active

Could you do the same for `CC(C)OC(=O)c1cc(C(=O)OC(C)C)cc([N+](=O)[O-])c1` , please?
inactive

Could you do the same for `C(=C/c1ccccc1)/c1ccccc1` , please?
inactive

Could you do the same for `Cc1ccc(CCn2c3c(c4cc(Cl)ccc42)CN(C)CC3)cn1` , please?
inactive

Could you do the same for `Nc1ccc2cc3ccc(N)cc3nc2c1` , please?
active

Could you do the same for `CC(=O)c1ccccc1N` , please?
inactive

Could you do the same for CCNc1nc(NC(C)CC)nc(OC)n1 (stereo not drawn) , please?
inactive

Could you do the same for `c1cc2c3c(c1)ccc1cccc(c13)C2` , please?
inactive

Could you do the same for `O=C(Nc1ccc(Cl)c(Cl)c1)c1cc(Cl)cc(Cl)c1O` , please?
active

Could you do the same for `S=P(N1CC1)(N1CC1)N1CC1` , please?
inactive

Could you do the same for `O=C1c2c(O)ccc([N+](=O)[O-])c2C(=O)c2c([N+](=O)[O-])ccc(O)c21` , please?
active

Could you do the same for `COc1nccnc1CC(C)C` , please?
inactive

Could you do the same for `CCOCOCC` , please?
inactive

Could you do the same for `OCCCc1cccnc1` , please?
inactive

Could you do the same for `Cc1c(C(=O)O)cccc1[N+](=O)[O-]` , please?
inactive

Could you do the same for `CC(C)=C1CC[C@@H](C)CC1=O` , please?
inactive

Could you do the same for CCC(C)C(=O)OC (stereo not drawn) , please?
inactive

Could you do the same for `CCCN(CCc1cccs1)[C@H]1CCc2c(O)cccc2C1` , please?
inactive

Could you do the same for CCOC(=O)CC(C)O (stereo not drawn) , please?
inactive

Could you do the same for `CC1=C(/C=C/C(C)=C/C=C/C(C)=C\C=O)C(C)(C)CCC1` , please?
active

Could you do the same for `O=C1c2c(O)ccc(O)c2C(=O)c2c(NCCNCCO)ccc(NCCNCCO)c21` , please?
active

Could you do the same for `CC(C)C(=O)OCc1ccccc1` , please?
inactive

Could you do the same for `C=C(c1ccc(C(=O)O)cc1)c1cc2c(cc1C)C(C)(C)CCC2(C)C` , please?
active

Could you do the same for `COc1ccc(C#N)cc1` , please?
inactive

Could you do the same for `CCCCN(C)C` , please?
inactive

Could you do the same for `CCCCCCCC/C=C/CCCOC(C)=O` , please?
inactive

Could you do the same for `CCc1c(Br)c(Br)c(Br)c(Br)c1Br` , please?
inactive

Could you do the same for `CC1(C)COCN1` , please?
inactive

Could you do the same for `COc1ccccc1C=O` , please?
inactive

Could you do the same for `CN1CN(C)CN(C)C1` , please?
inactive

Could you do the same for `Clc1cccnc1` , please?
inactive

Could you do the same for `CCCCCCCCCCCCCc1ccccc1` , please?
inactive

Could you do the same for `CC[N+](CC)(CC)Cc1ccccc1` , please?
inactive

Could you do the same for `Cc1cccc(C)n1` , please?
inactive

Could you do the same for `CN(C)c1ccc(N=Nc2ccccc2C(=O)O)cc1` , please?
active

Could you do the same for `CS(C)(=O)=O` , please?
inactive

Could you do the same for `C=CC/C=C/C/C=C/C/C=C/C` , please?
inactive

Could you do the same for Clc1ccc(C(c2ccccc2Cl)C(Cl)Cl)cc1 (stereo not drawn) , please?
inactive

Could you do the same for `C/C=C/C=N/NC(=O)c1ccncc1` , please?
inactive

Could you do the same for CC(C)=CCCC(C)O (stereo not drawn) , please?
inactive

Could you do the same for `CCOC(=O)COc1ccc(C)cc1` , please?
inactive

Could you do the same for `c1ccc(Sc2ccccc2)cc1` , please?
inactive

Could you do the same for `Cc1cc2c(C(C)C)c(O)c(O)c(C=O)c2c(O)c1-c1c(C)cc2c(C(C)C)c(O)c(O)c(C=O)c2c1O` , please?
active

Could you do the same for `O=C(Oc1ccccc1)c1cccc(C(=O)Oc2ccccc2)c1` , please?
inactive
